Below: a set of entries, each annotated with reported binding signal.
target: TDP-43 (Homo sapiens, UniProt Q13148 1-414); test: RNA Bind-n-Seq with designed 260-mer pool; 25 mM Tris-HCl, 150 mM KCl, 3 mM MgCl2, BSA (printed 500 mg/mL), 20 units/mL SUPERase IN; pH not stated; 500 nM RNA pool, 1 h, 4 C; TDP-43 5, 50, 500 nM; high values mean tight binding; conditions: protein: recombinant; tags: SBP (GST cleaved off with PreScission; pGEX-GST-SBP)
Sequence (Q13148 whole entry): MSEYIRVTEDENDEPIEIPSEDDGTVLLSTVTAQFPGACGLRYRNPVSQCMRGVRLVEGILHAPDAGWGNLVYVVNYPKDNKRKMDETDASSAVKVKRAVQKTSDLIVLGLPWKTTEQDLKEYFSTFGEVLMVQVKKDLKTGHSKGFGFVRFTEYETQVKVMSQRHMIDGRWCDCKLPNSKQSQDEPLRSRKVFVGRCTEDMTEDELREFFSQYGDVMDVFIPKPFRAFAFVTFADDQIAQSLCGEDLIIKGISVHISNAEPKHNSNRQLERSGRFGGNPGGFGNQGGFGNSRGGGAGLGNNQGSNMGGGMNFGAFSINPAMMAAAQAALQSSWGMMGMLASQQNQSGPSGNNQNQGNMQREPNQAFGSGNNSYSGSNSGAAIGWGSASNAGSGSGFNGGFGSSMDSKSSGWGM
The full ranking holds about 9,900 sequences; the median of “r (bound/input frequency ratio)” is about 0.7, and the highest 2% start at about 6.5. This is one part of a sample in which the highest values are shown more often than they occur.
REPORTED PROPERTY: binding signal

[[record]]
binder = "ENSMUSG00000028439.153|Fam219a (ssRNA) RNA: GGGAGUUCUACAGUCCGACGAUCGCUUCGAUAUCCGCAUGCUACUGUGCCCCAUUGCCAUUUCACCCUAGCUCAAAGUCCAGGAGCCAGGCUUCCAGAAAGGCUCUUCAAGAGCAAGCUUAAGGAAAUACAGUGAGCCAAGUGGCUGUAUGAUAUGGUAUGGUAUGGUAUGGUAUGGUAUGGUAUGGUAUGCACAUGUGUGUGCAUGUGUGUGUGCCUGUGUGUGUGCGUGUGCGUGUGUGUAUGUGUGUGCGUGUGUGUGUGUGUGUGUUGUACCCGAGUGUGUGUUGAGCCUAUCUGUCCACUCUUGCGGUCGCACUAGUGUGGAAUUCUCGGGUGUCAAGG"
reported_property = "binding signal"
test_result = "6.09 R (bound/input frequency ratio)"

[[record]]
binder = "ENSMUSG00000022095.20|Fam160b2|21:25;227:231 (ssRNA) RNA: GGGAGUUCUACAGUCCGACGAUCGCUUCGAUAUCCGCAUGCUAGGUGGGGGAAGAUUCCUGCCACACAACUUCUGCCCACGGGCAGUCUCCUGCCUGGCCAUGCUGCCACUCUGUCCUCCAUGCCGGGGACUUCAGCUGCAGGACACCUCACCUGUUGACCCCACGAGCUGAGGUUUCAAGGAGGUGCUGGCUCCUAAGGCAGUGGUAUUCUUGGAGCCUUUUAGAGGAGCUAGAGGAUGGCCAGUGAGCGCCUAGAUGCUGCCCUGCAACACAUGCGUGACUAUCUCUGCUAUAUUGUGACCCUCUUGCGGUCGCACUAGUGUGGAAUUCUCGGGUGUCAAGG"
reported_property = "binding signal"
test_result = "0.271 R (bound/input frequency ratio)"

[[record]]
binder = "ENSMUSG00000028439.155|Fam219a (ssRNA) RNA: GGGAGUUCUACAGUCCGACGAUCGCUUCGAUAUCCGCAUGCUAGCCAUUUCACCCUAGCUCAAAGUCCAGGAGCCAGGCUUCCAGAAAGGCUCUUCAAGAGCAAGCUUAAGGAAAUACAGUGAGCCAAGUGGCUGUAUGAUAUGGUAUGGUAUGGUAUGGUAUGGUAUGGUAUGGUAUGCACAUGUGUGUGCAUGUGUGUGUGCCUGUGUGUGUGCGUGUGCGUGUGUGUAUGUGUGUGCGUGUGUGUGUGUGUGUGUUGUACCCGAGUGUGUGUUGAGCCUAUCUGUCCAGGGAACCAGAUUCUCUUGCGGUCGCACUAGUGUGGAAUUCUCGGGUGUCAAGG"
reported_property = "binding signal"
test_result = "7.8 R (bound/input frequency ratio)"

[[record]]
binder = "ENSMUSG00000031028.671|Tub (ssRNA) RNA: GGGAGUUCUACAGUCCGACGAUCGCUUCGAUAUCCGCAUGCUAGAGAGCACACUUAGCCAGUUUUCACGCCUAGAACAUAUAUGUCGAUUUGCACAUGAUUGUCUUUUCCUAUUUUGGAGUGGUCAGACAUUUUAUUUUUGUUCAAAAUUAUCUGGAGUUUUAGACAAACUUGCAAAACUGUGCUUUUAUUAAGUGACUUUUUGAAUAAACUUUUUGGUAUUCUGAAGCAAAUGUAUUUAUUUAUUGGUAUGUGCAAUGACAAACUUGGUAUUUUCCCAUAAUGACAUUAUGUAUGUUGUAGACUCUUGCGGUCGCACUAGUGUGGAAUUCUCGGGUGUCAAGG"
reported_property = "binding signal"
test_result = "0.247 R (bound/input frequency ratio)"

[[record]]
binder = "ENSMUSG00000061578.897|Ksr2|214:218 (ssRNA) RNA: GGGAGUUCUACAGUCCGACGAUCGCUUCGAUAUCCGCAUGCUAUCCUGGGACACUACCCAAACCCUAGCACUCUCCCAGUGACUCUCCUAUGAGUACAUAUGCCAUCCUGCUUCCUUUGUGGCAAAACCCUGGGUCACCCAGAGACAGAUUUCCCAGAAUCCCUGGGCCACUUCUCAAUUCUACCCAUGACAGACAUGUCCCAUCCAUGAGCCCAGAUAGUCAAAGACUUCAGCACAAGGGUGUUUAGAGUAGGCACACACGAAGUAUCAAUAAGGUUAUUGAGAUGAGGAUUUAGAAAGAUCCUCUUGCGGUCGCACUAGUGUGGAAUUCUCGGGUGUCAAGG"
reported_property = "binding signal"
test_result = "0.295 R (bound/input frequency ratio)"

[[record]]
binder = "ENSMUSG00000028439.154|Fam219a (ssRNA) RNA: GGGAGUUCUACAGUCCGACGAUCGCUUCGAUAUCCGCAUGCUACCCAUUGCCAUUUCACCCUAGCUCAAAGUCCAGGAGCCAGGCUUCCAGAAAGGCUCUUCAAGAGCAAGCUUAAGGAAAUACAGUGAGCCAAGUGGCUGUAUGAUAUGGUAUGGUAUGGUAUGGUAUGGUAUGGUAUGGUAUGCACAUGUGUGUGCAUGUGUGUGUGCCUGUGUGUGUGCGUGUGCGUGUGUGUAUGUGUGUGCGUGUGUGUGUGUGUGUGUUGUACCCGAGUGUGUGUUGAGCCUAUCUGUCCAGGGAACCUCUUGCGGUCGCACUAGUGUGGAAUUCUCGGGUGUCAAGG"
reported_property = "binding signal"
test_result = "7.96 R (bound/input frequency ratio)"

[[record]]
binder = "ENSMUSG00000029028.191|Lrrc47 (ssRNA) RNA: GGGAGUUCUACAGUCCGACGAUCGCUUCGAUAUCCGCAUGCUACCCAUCUCUGUGCAUCCUGACUGCGCACAUCCCAUCUCCGCAUGUGUACGCAUCUGUACCAGCACACAGCUGCCAUCCCUCGAGCCACAGUGCCUGGUCCUAAGGACCCAGCAGCUGCACAGAGGACUUGGUGGCCCCGUGCCUUGCCAUCUGGCUGAGAAGAGAACCAGACCCUCAGCCUUCCCCCUCGACACCUUCUCGUUGGUGACCUCUGACCUUAAAGGACCAUUUCUACCUUCUGUAAAAGAACACCUGUUUGGCUCUUGCGGUCGCACUAGUGUGGAAUUCUCGGGUGUCAAGG"
reported_property = "binding signal"
test_result = "0.696 R (bound/input frequency ratio)"

